Assignment: determine reported selective drug sensitivity score for the given molecules.
Test system: COG-LL-332h;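 also: ALL cell lines in 384-well plates, five doses spanning 10,000-fold, each plate scaled between vehicle and 100 µmol/L benzalkonium chloride controls, sDSS an adapted area-under-curve metric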
ASSAY_METHOD_TEXT: selective drug sensitivity score (sDSS, relative to normal bone marrow) (sDSS (score)); higher = more potent and effective on the cell line relative to normal bone marrow cells
ASSAY_SETUP: 72 h
Answer with a number only.

# selective drug sensitivity score of CN1CCN(c2cc(C(=O)Nc3ccc4c(c3)-c3c(c(C(N)=O)nn3-c3ccc(F)cc3)CC4)c(Cl)cn2)CC1 [PHA-408] (top concentration 10000 nM) = 2.98

# selective drug sensitivity score of CC[C@H](NC(=O)[C@H](C)NC)C(=O)N1C[C@@H](O)C[C@H]1Cc1c(-c2[nH]c3cc(F)ccc3c2C[C@@H]2C[C@H](O)CN2C(=O)[C@H](CC)NC(=O)[C@H](C)NC)[nH]c2cc(F)ccc12 [Birinapant] (top concentration 1000 nM) = 9.6

# selective drug sensitivity score of COc1ccc(-c2nc(N3CCOCC3)c3sc(CN(C)c4ncc(C(=O)NO)cn4)cc3n2)cn1 [Fimepinostat (CUDC-907)] (top concentration 10000 nM) = 1.08

# selective drug sensitivity score of CCOC(=O)CCNc1cc(N2CCc3ccccc3CC2)nc(-c2ccccn2)n1 [GSK-J4] (top concentration 100000 nM) = -7.08

# selective drug sensitivity score of COc1cc2ncnc(Oc3cccc(NC(=O)Nc4cc(C(C)(C)C(F)(F)F)on4)c3)c2cc1OC (top concentration 10000 nM) = 18.4

# selective drug sensitivity score of CC(=O)OC[C@H]1O[C@@H]([S-])[C@H](OC(C)=O)[C@@H](OC(C)=O)[C@@H]1OC(C)=O.CCP(CC)CC.[Au+] [Auranofin] (top concentration 2500 nM) = 1.44

# selective drug sensitivity score of NS(=O)(=O)NCCNc1nonc1/C(=N/O)Nc1ccc(F)c(Br)c1 [Epacadostat] (top concentration 10000 nM) = -0.26

# selective drug sensitivity score of O=C(O)c1ccc(O)c2ncccc12 [IOX-1] (top concentration 100000 nM) = 7.54

# selective drug sensitivity score of Cc1cccc(-c2[nH]c(CNc3ccccc3F)nc2-c2ccc3ncnn3c2)n1 [Vactosertib (TEW-7197)] (top concentration 2500 nM) = -0.2

# selective drug sensitivity score of C=CC(=O)Nc1cc2c(Nc3ccc(F)c(Cl)c3)ncnc2cc1OCCCN1CCOCC1 [Canertinib] (top concentration 10000 nM) = 1.86

# selective drug sensitivity score of C[C@H]1Oc2cc(cnc2N)-c2c(nn(C)c2C#N)CN(C)C(=O)c2ccc(F)cc21 (top concentration 1000 nM) = -0.72

# selective drug sensitivity score of CNC(=O)c1cc(Oc2ccc(NC(=O)Nc3ccc(Cl)c(C(F)(F)F)c3)c(F)c2)ccn1 [Regorafenib] (top concentration 10000 nM) = 6.74

# selective drug sensitivity score of CO[C@@H](C(=O)N1Cc2[nH]nc(NC(=O)c3ccc(N4CCN(C)CC4)cc3)c2C1)c1ccccc1 [Danusertib] (top concentration 10000 nM) = 17.2

# selective drug sensitivity score of Cc1c(-c2ccc(N3CCc4cccc(C(=O)Nc5nc6ccccc6s5)c4C3)nc2C(=O)O)cnn1CC12CC3CC(CC(C3)C1)C2 (top concentration 1000 nM) = 9.14

# selective drug sensitivity score of CC[C@@](C)(Nc1ccnc(-c2c[nH]c3ncccc23)n1)C(=O)NCC(F)(F)F [Decernotinib] (top concentration 10000 nM) = -3.34

# selective drug sensitivity score of Clc1ccc(Nc2nnc(Cc3ccncc3)c3ccccc23)cc1 [Vatalanib] (top concentration 10000 nM) = 0.7

# selective drug sensitivity score of CN1CCN(c2ccc3nc(-c4c(N)c5c(F)cccc5[nH]c4=O)[nH]c3c2)CC1 [Dovitinib] (top concentration 10000 nM) = 0.36

# selective drug sensitivity score of Nc1cc(F)ccc1NC(=O)/C=C/c1cnn(C/C=C/c2ccccc2)c1 [RGFP966] (top concentration 10000 nM) = 15.7

# selective drug sensitivity score of CN(C)C(=O)c1cc2cnc(Nc3ccc(N4CCNCC4)cn3)nc2n1C1CCCC1 [Ribociclib] (top concentration 10000 nM) = 1.58
